- Test system: T1, 4H568-bA
- T1 chain: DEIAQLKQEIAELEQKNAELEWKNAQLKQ
- Experimental protocol: two-hybrid library CCNG1;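 also: natural log of median RNA to DNA barcode read ratio; higher means stronger binding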
Readout label: interaction score

Lookup result for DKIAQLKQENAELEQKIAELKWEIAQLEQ [4H2729-bA] ; measured interaction score: -1.78

A. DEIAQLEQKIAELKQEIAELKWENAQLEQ [4H331-bA]
B. DEIAQLEQKNAELKQEIAELEWKIAQLKQ [4H454-bA]
Incoming: Could you point out whether the larger interaction score belongs to A or to B ? When you have decided, please share the label of that item.
Outgoing: A
